These entries and their values trace back to patent US7504420B2.

A collection of compounds and their measured Ki
Assay target: memapsin 2 (Homo sapiens)
Sequence (P56817 46-501): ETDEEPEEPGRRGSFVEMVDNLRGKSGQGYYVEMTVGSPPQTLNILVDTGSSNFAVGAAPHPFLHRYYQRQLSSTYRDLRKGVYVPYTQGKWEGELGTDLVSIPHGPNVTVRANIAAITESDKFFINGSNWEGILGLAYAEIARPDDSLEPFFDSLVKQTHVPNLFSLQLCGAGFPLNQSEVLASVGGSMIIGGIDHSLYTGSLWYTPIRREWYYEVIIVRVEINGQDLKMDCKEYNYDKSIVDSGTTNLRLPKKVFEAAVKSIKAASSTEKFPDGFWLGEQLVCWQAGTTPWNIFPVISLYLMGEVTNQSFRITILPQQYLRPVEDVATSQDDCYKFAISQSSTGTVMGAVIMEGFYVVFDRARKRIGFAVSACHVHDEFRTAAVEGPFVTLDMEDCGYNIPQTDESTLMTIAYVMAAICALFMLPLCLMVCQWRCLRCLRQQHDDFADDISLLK
Measurement protocol: Inhibition of memapsin 2 catalytic activity (Ki)
Assay type: biochemical
Test context: memapsin 2, pH 4, 37° C.; read-out: M2K

Example compounds with recorded Ki:
COc1cccc(CNCC(O)C(Cc2ccccc2)NC(=O)c2cc(C(=O)NCc3nc(C)oc3C)cc(N(C)S(C)(=O)=O)c2)c1 (stereo not shown): > 501 nM
COc1cccc(CNCC(O)C(Cc2ccccc2)NC(=O)c2cccc(C(=O)N(Cc3nc(C)cs3)C3CCCCC3)c2)c1 (stereo not shown): 301 to 500 nM
COc1cccc(CNCC(O)C(Cc2ccccc2)NC(=O)c2cc(C(=O)NC(C)c3nccs3)cc(N(C)S(C)(=O)=O)c2)c1 (stereo not shown): < 300 nM
COc1cccc(CNCC(O)C(Cc2ccccc2)NC(=O)c2cc(C(=O)NCc3cccc(OC)c3)cc(N(C)S(C)(=O)=O)c2)c1 (stereo not shown): < 300 nM
CC(NC(=O)c1cc(C(=O)NC(Cc2ccccc2)C(O)CNCc2nc3ccccc3[nH]2)cc(N(C)S(C)(=O)=O)c1)c1ccccc1 (stereo not shown): < 300 nM
CC(NC(=O)c1cc(C(=O)NC(Cc2ccccc2)C(O)CNCc2cccc(C(F)(F)F)c2)cc(N(C)S(C)(=O)=O)c1)c1ccccc1 (stereo not shown): < 300 nM

Qu. Returns the measured Ki for the input compound. Input: Cc1csc(CN(C(=O)c2cccc(C(=O)NC(Cc3ccccc3)C(O)CNCc3cncc(C(C)C)c3)c2)C2CC2)n1 (stereo not shown)
Ans. < 300 nM
